meta.source: patent US20230002367A1

- system_under_test: SMARCA2 (Homo sapiens, UniProt P51531)
- Construct: endogenous in cells
- Sequence (P51531 whole entry): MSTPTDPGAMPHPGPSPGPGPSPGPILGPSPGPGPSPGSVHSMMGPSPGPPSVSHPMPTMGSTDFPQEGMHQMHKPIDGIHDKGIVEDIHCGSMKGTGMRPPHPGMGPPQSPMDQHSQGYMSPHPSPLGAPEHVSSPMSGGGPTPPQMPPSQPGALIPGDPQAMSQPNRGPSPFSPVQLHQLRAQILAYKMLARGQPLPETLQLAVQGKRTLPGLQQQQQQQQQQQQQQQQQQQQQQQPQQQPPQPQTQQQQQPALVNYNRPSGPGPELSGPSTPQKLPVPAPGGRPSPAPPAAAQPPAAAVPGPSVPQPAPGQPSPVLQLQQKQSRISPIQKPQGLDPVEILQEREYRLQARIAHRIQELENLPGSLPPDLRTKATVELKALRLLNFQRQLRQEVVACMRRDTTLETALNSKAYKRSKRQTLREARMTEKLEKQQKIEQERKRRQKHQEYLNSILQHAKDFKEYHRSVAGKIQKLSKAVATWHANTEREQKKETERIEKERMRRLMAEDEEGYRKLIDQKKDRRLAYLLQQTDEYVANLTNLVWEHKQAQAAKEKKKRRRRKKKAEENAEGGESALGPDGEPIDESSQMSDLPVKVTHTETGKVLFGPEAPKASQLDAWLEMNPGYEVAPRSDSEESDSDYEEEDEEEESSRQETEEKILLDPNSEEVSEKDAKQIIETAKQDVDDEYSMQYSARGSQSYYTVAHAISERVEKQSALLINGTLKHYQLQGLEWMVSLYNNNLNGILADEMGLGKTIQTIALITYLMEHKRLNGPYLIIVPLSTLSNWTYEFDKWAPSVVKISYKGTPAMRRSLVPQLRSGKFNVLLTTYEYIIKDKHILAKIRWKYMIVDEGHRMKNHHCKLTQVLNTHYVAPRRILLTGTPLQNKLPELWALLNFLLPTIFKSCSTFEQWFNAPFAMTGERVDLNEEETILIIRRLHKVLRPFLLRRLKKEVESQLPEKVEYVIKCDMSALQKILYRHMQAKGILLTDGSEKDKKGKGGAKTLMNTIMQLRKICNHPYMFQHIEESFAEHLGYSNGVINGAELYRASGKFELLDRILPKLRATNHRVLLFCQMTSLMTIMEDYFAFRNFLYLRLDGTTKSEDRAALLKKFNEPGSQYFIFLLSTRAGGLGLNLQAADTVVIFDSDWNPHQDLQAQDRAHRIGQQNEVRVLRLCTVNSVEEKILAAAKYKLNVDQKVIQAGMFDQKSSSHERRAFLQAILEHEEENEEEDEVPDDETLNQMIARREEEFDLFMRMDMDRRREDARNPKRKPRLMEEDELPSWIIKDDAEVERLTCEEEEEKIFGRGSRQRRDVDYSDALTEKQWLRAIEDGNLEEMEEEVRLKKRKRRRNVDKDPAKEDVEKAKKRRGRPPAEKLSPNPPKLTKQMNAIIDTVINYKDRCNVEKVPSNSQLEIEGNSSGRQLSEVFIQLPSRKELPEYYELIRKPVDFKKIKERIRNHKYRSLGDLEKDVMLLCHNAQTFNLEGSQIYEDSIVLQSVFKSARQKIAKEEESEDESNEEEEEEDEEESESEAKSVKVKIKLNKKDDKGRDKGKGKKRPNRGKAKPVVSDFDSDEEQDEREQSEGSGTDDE
- experiment: SMARCA2 HiBiT degradation assay (cellular)
- Format: cell-based
- assay_context: A549, Emax = amount of residual protein remaining in the cell following compound treatment
measured_quantity: Emax

Worked cases, Emax given:
[[record]]
molecule = "Cc1ncsc1-c1ccc([C@H](C)NC(=O)[C@@H]2C[C@@H](O)CN2C(=O)[C@@H](NC(=O)CCCCCC(=O)N2CCN(CCOc3cccc(N4CCCC(Oc5cc(-c6ccccc6O)nnc5N)C4)c3)CC2)C(C)(C)C)cc1 (mixture of isomers) [Example 70]"
system_under_test = "SMARCA2 (Homo sapiens, UniProt P51531)"
measured_quantity = "Emax"
endpoint_result = "50%"

[[record]]
molecule = "Cc1ncsc1-c1ccc([C@H](C)NC(=O)[C@@H]2C[C@@H](O)CN2C(=O)[C@@H](NC(=O)CCOCCC(=O)N(C)CC(COc2cc(-c3ccccc3O)nnc2N)c2ccccc2)C(C)(C)C)cc1 (mixture of isomers) [Example 49]"
system_under_test = "SMARCA2 (Homo sapiens, UniProt P51531)"
measured_quantity = "Emax"
endpoint_result = "60%"

[[record]]
molecule = "Cc1ncsc1-c1ccc([C@H](C)NC(=O)[C@@H]2C[C@@H](O)CN2C(=O)[C@@H](NC(=O)CCCCCCCCC(=O)N2CCN(C(=O)c3ccc(OC4CN(c5cc(-c6ccccc6O)nnc5N)C4)cc3)CC2)C(C)(C)C)cc1 [Example 104]"
system_under_test = "SMARCA2 (Homo sapiens, UniProt P51531)"
measured_quantity = "Emax"
endpoint_result = "54%"


Enquiry: I would be grateful if you could share the reported Emax for Cc1ncsc1-c1ccc(CNC(=O)[C@@H]2C[C@@H](O)CN2C(=O)[C@@H](NC(=O)CCCCCCCCC(=O)N2C3CCC2CN(c2cc(-c4ccccc4O)nnc2N)C3)C(C)(C)C)cc1 [Example 5] .
Return: 31%

Enquiry: What value of Emax has been reported for the following molecule? Cc1ncsc1-c1ccc([C@H](C)NC(=O)[C@@H]2C[C@@H](O)CN2C(=O)[C@@H](NC(=O)CCCCCCCCCC(=O)N2CCN(CCOc3cccc(N4C5CCC4CN(c4cc(-c6ccccc6O)nnc4N)C5)c3)CC2)C(C)(C)C)cc1 [Example 37]
Return: 29%

====

- system_under_test: SMARCA2 (Homo sapiens)
- Construct: endogenous in cells
- experiment: SMARCA2 HiBiT degradation assay (cellular)
- Assay type: cell-based
- assay_context: A549, Emax = amount of residual protein remaining in the cell following compound treatment
measured_quantity: Emax (%)
State just the number; it will be interpreted in %.

[[record]]
molecule = "Cc1ncsc1-c1ccc(CNC(=O)[C@@H]2C[C@@H](O)CN2C(=O)[C@@H](NC(=O)CCCCCCCCC(=O)N2CCC(CNC(=O)C3CN(c4cc(-c5ccccc5O)nnc4N)CCN3c3ccccc3)CC2)C(C)(C)C)cc1 (mixture of isomers)"
measured_quantity = "Emax"
quantity_unit = "%"
endpoint_result = 40


Enquiry: Item: Cc1ncsc1-c1ccc(CNC(=O)[C@@H]2C[C@@H](O)CN2C(=O)[C@@H](NC(=O)CCCCCCCCCCC(=O)N2CCN(CCOc3cccc(C#Cc4cc(-c5ccccc5O)nnc4N)c3)CC2)C(C)(C)C)cc1 Test system: SMARCA2 (Homo sapiens) Read-out: Emax Value: ?
Return: 49

Enquiry: Query Emax on SMARCA2 (Homo sapiens) for Cc1ncsc1-c1ccc([C@H](C)NC(=O)[C@@H]2C[C@@H](O)CN2C(=O)[C@@H](NC(=O)CCCCCCCCC(=O)N2CCN(C(=O)c3cccc(OC4CN(c5cc(-c6ccccc6O)nnc5N)C4)c3)CC2)C(C)(C)C)cc1
Return: 38
